Source: patent US9334271B2

# Test system: H4 mCherry-GFP-LC3 cells
# protocol: Test 3: Autophagy assay (mCherry-GFP-LC3 reporter, high-content imaging)
# Type: cell-based, human
# experimental_setup: Homo sapiens, 16-18 h treatment, mCherry-positive LC3 puncta/cell
Listed next: entries and their corresponding pEC50.
pEC50 field: float, defined as -log10 of concentration (mol/L).

- C[C@@H]1COCCN1c1nc(N2CCOC[C@H]2C)c2nc(-c3ccc(-c4ncc[nH]4)cc3)[nH]c2n1: 5.67

Value sought: pEC50, system H4 mCherry-GFP-LC3 cells, item C[C@@H]1COCCN1c1nc(N2C3CCC2CC(O)C3)nc2[nH]c(-c3cccc4[nH]ccc34)nc12 (stereo partly shown) . Result: 6.03

Value sought: pEC50, system H4 mCherry-GFP-LC3 cells, item CCC[C@@H]1COCCN1c1nc(N2CCOC[C@H]2C)c2nc(-c3cccc4[nH]ccc34)[nH]c2n1 . Result: 6.17

Value sought: pEC50, system H4 mCherry-GFP-LC3 cells, item C[C@@H]1COCCN1c1nc(N2CCOC[C@H]2C)c2nc(-c3ccc(N)nc3)[nH]c2n1 . Result: 5.63

Value sought: pEC50, system H4 mCherry-GFP-LC3 cells, item C[C@@H]1COCCN1c1nc(N2CCOC[C@@H]2C)nc2[nH]c(-c3cc[nH]n3)nc12 . Result: 5.98

Value sought: pEC50, system H4 mCherry-GFP-LC3 cells, item C[C@@H]1COCCN1c1nc(N2CCOC[C@@H]2C)nc2[nH]c(-c3ccccn3)nc12 . Result: 5.88

Value sought: pEC50, system H4 mCherry-GFP-LC3 cells, item COc1cc(-c2nc3c(N4CCOC[C@H]4C)nc(N4CCOC[C@@H]4C)nc3[nH]2)c2cc[nH]c2c1 . Result: 6.84

Value sought: pEC50, system H4 mCherry-GFP-LC3 cells, item C[C@@H]1COCCN1c1nc(N2CCOC[C@H]2C)c2nc(-c3cc(CO)cc4[nH]ccc34)[nH]c2n1 . Result: 6.37

Value sought: pEC50, system H4 mCherry-GFP-LC3 cells, item C[C@H]1COCCN1c1nc(N2CCOC[C@@H]2C)c2nc(-c3ccc(N)nc3)[nH]c2n1 . Result: 5.32

Value sought: pEC50, system H4 mCherry-GFP-LC3 cells, item C[C@@H]1COCCN1c1nc(N2CC3COCC3C2)nc2[nH]c(-c3cccc4[nH]ccc34)nc12 (stereo partly shown) . Result: 6.14

Value sought: pEC50, system H4 mCherry-GFP-LC3 cells, item C[C@@H]1COCCN1c1nc(N2CC3(CCCOC3)C2)nc2[nH]c(-c3cccc4[nH]ccc34)nc12 . Result: 6.18

Value sought: pEC50, system H4 mCherry-GFP-LC3 cells, item C[C@@H]1COCCN1c1nc(N2CCCOCC2)nc2[nH]c(-c3cccc4[nH]ccc34)nc12 . Result: 6.37

----------
# Tested on: H4 mCherry-GFP-LC3 cells
# protocol: Test 3: Autophagy assay (mCherry-GFP-LC3 reporter, high-content imaging)
# Assay type: cell-based, human
# experimental_setup: Homo sapiens, 16-18 h treatment, mCherry-positive LC3 puncta/cell
quantity_kind: EC50

Lookup result for C[C@@H]1COCCN1c1nc(N2CCOC[C@H]2C)c2nc(-c3cnc(N)nc3)[nH]c2n1 ; measured EC50: 3610 nM

Lookup result for C[C@H]1COCCN1c1nc(N2CCOC[C@@H]2C)c2nc(-c3ccc(-c4ncc[nH]4)cc3)[nH]c2n1 ; measured EC50: 1460 nM
